Tested on: RPMI-7951 human melanoma
Test: Neutral Red Assay, cell viability, RPMI-7951
Details: RPMI-7951; 5 μM; DMSO = 100
Checkbox rule: Cell Viability lower than 90% = y; Cell Viability not lower than 90% = n.

MOLECULE	SYSTEM	GROUP LABEL
O=C1C(=Cc2ccccc2O)COCC1=Cc1ccccc1O	RPMI-7951 human melanoma	y

For COc1ccc(C=CC(=O)c2ccccc2)cc1OC , is the recorded Cell Viability below the cut-off of 90%?
n

For C(=C\c1ccccc1)/S/C=C/c1ccccc1 , is the recorded Cell Viability below the cut-off of 90%?
n

###

Tested on: CCRF-CEM
Details: read-out: Median Lethal Concentration (LC50), Leukemia, 48 hours, SRB assay
ASSAY ENDPOINT: CC50

Recorded CC50 for O=C1C(=Cc2ccccc2O)COCC1=Cc1ccccc1O , please?
> 100 µM

###

Test system: HL-60 (TB)
Conditions: read-out: Median Lethal Concentration (LC50), Leukemia, 48 hours, SRB assay
ASSAY ENDPOINT: CC50

Recorded CC50 for O=C1C(=Cc2ccccc2O)COCC1=Cc1ccccc1O [EF25] , please?
> 100 µM

###

System: SK-OV-3
Conditions: read-out: Median Lethal Concentration (LC50); Ovarian Cancer, SK-OV-3; 48 hours, SRB assay
ASSAY ENDPOINT: CC50 (µM)
Dear colleague, please return just the value in µM, with no unit written.

Provide value of CC50 for this record tested with SK-OV-3: O=C1C(=Cc2ccccc2O)COCC1=Cc1ccccc1O
26.9

###

Property: TF; scope: individual molecules
System: Tissue Factor (TF) production by human melanoma cell line RPMI-7951
Test: TF ELISA, RPMI-7951
Assay type: cell-based
Details: 5 μM, DMSO = 100
Dear colleague, please return just the value in %, with no unit written.

MOLECULE	TF (%)
COc1ccc(C=CC(=O)C=Cc2ccc(OC)cc2)cc1	100

Recorded TF for C(=C\c1ccccc1)/S/C=C/c1ccccc1 , please?
106

Recorded TF for COc1cc(/C=C/C(=O)CC(=O)/C=C/c2ccc(O)c(OC)c2)ccc1O , please?
126

Recorded TF for COc1ccc(CCC(=O)CCc2ccc(OC)c(OC)c2)cc1OC [MD279U, 1,5-Bis(3,4-dimethoxyphenyl)penta-3-one] , please?
102

Recorded TF for COc1cc(C=C2CCCC(=Cc3ccc(O)c(OC)c3)C2=O)ccc1O , please?
25

Recorded TF for COc1cc(CC2CCCC(Cc3ccc(O)c(OC)c3)C2=O)ccc1O (stereo not drawn) [Compound A231U] , please?
78

Recorded TF for COc1ccc(/C=C/C(=O)/C=C/c2ccc(OC)c(OC)c2)cc1OC , please?
25

Recorded TF for COc1ccc(CCC(O)CCc2ccc(OC)c(OC)c2)cc1OC [MD279L, 1,5-Bis(3,4-dimethoxyphenyl)penta-3-ol] , please?
82

Recorded TF for O=C(C=Cc1ccccc1O)C=Cc1ccccc1O , please?
82

###

Property: CC50; scope: individual molecules
Test system: SK-MEL-2
Experiment: cells
Conditions: Homo sapiens, SK-MEL-2, 48 h, read-out: Median Lethal Concentration (LC50)
Dear colleague, please return just the value in µM, with no unit written.

Some solved cases for reference:
MOLECULE	CC50, µM
OC(CCc1ccc(F)cc1F)CCc1ccc(F)cc1F	57
O=C1C(=Cc2ccccc2O)CCCC1=Cc1ccccc1O	25.3
CC1(/C=C/c2ccccc2O)C=Cc2ccccc2O1 (stereo not drawn)	57

Recorded CC50 for O=C(C=Cc1ccc(F)cc1F)C=Cc1ccc(F)cc1F , please?
58.9

Recorded CC50 for CC(=O)O.O=C1C(=Cc2ccccc2F)CNCC1=Cc1ccccc1F , please?
19.5

Recorded CC50 for COc1cc(/C=C/C(=O)CC(=O)/C=C/c2ccc(O)c(OC)c2)ccc1O , please?
79.4
